Test: Half life evaluated in plasma in vitro at 20 degree Centigrade
Assay type: ADME, cell-free
measure_name: half-life
A bare number is not enough; add the unit after it.

**Query** Consider the compound shown here: O=C(CCCC[C@@H]1SC[C@@H]2NC(=O)N[C@@H]21)NCCNC(=O)Cn1ccnc1[N+](=O)[O-] What is its recorded half-life?
**Result** 2 h
